- Measured Target: SMYD3 (Homo sapiens)
- Sequence (Q9H7B4 1-428): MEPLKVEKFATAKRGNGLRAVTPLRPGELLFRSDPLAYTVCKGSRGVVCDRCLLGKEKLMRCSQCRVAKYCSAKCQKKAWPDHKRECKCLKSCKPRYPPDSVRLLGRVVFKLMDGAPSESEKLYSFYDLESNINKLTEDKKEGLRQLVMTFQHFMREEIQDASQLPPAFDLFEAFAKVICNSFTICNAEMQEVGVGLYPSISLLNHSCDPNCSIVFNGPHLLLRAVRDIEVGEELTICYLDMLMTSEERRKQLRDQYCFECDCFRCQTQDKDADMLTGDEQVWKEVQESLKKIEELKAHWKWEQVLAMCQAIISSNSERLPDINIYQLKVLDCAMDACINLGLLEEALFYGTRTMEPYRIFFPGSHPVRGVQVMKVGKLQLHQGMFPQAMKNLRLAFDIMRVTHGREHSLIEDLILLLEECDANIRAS
- Procedure Text: SMYD3 biochemical assay (MTase-Glo, MAP3K2 peptide substrate)
- Condition: Table 3; MTase assay, MAP3K2 peptide substrate; read-out: IC50
Quantity Kind: IC50 (nM)
Answer with a number only, understood to be in nM.

// query Recorded IC50 for `CCCOC(=O)N1CCN(C(=O)c2ccc3c(Cl)cc(-c4ccc5c(c4)OCO5)nc3c2)CC1` , please?
// result 120

// query Quick one: IC50 for CCCOC(=O)N1CCN(C(=O)c2ccc3c(Cl)c4c(nc3c2)CC(c2ccc(C)cn2)CC4)C[C@H]1C (stereo partly shown) ?
// result 110

// query What value of IC50 has been reported for the following compound? `CCCOC(=O)N1CCN(C(=O)c2ccc3c(Cl)cc(-c4ccc(-n5cccn5)cc4)nc3c2)CC1`
// result 600

// query Any idea what its IC50 is? The compound is CCCOC(=O)N1CCN(C(=O)c2ccc3c(Cl)c4c(nc3c2)CC(c2cc(C)ccn2)CC4)CC1 (stereo not shown)
// result 210

###

- Measured Target: SMYD3 (Homo sapiens, UniProt Q9H7B4)
- Sequence (Q9H7B4 1-428): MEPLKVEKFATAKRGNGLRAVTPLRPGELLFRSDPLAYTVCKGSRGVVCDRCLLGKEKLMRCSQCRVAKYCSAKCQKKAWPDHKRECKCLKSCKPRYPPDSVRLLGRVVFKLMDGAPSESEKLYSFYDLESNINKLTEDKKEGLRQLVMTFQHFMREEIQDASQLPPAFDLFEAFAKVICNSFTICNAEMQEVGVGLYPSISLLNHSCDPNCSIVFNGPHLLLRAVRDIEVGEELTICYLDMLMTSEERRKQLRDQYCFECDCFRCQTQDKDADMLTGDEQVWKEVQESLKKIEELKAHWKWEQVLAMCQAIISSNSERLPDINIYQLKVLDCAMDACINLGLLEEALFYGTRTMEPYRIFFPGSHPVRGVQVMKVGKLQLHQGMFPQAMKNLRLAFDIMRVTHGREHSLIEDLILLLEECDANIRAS
- Procedure Text: SMYD3 biochemical assay (MTase-Glo, MAP3K2 peptide substrate)
- Condition: Table 3; MTase assay, MAP3K2 peptide substrate; read-out: IC50
Fulfilled if IC50 is below 200 nM. Not fulfilled if not; exact matches included in Not fulfilled.

// query Determine if `CCCOC(=O)N1CCN(C(=O)c2ccc3c(Cl)cc(-c4ccc(O)c(F)c4)nc3c2)C[C@@H]1C` shows IC50 strictly lower than 200 nM.
// result Fulfilled

// query Is it true that IC50 reported for `CCCOC(=O)N1CCN(C(=O)c2ccc3c(Cl)c(C)c(-c4cccc(CN)c4)nc3c2)CC1` is less than 200 nM?
// result Fulfilled

// query Please determine if `CCCOC(=O)N1CCN(C(=O)c2ccc3c(Cl)cc(-c4cccc(CN)c4)nc3c2)CC1` is below 200 nM in terms of IC50.
// result Fulfilled

// query Answer whether the molecule CCCOC(=O)N1CCN(C(=O)c2ccc3c(Cl)c4c(nc3c2)CC(CCN)CC4)CC1 (centres unmarked) has IC50 strictly less than 200 nM
// result Fulfilled

// query Lab log: compare recorded IC50 with 200 nM; is it strictly lower for `CCCOC(=O)N1CCN(C(=O)c2ccc3c(Cl)cc(-c4ccc(OC)c(C#N)c4)nc3c2)C[C@H]1C` ?
// result Not fulfilled

// query Record `CCCOC(=O)N1CCN(C(=O)c2ccc3c(Cl)cc(-c4cc(C)n(C)c4C)nc3c2)CC1` : is its IC50 strictly below 200 nM?
// result Fulfilled

// query Here's an entry: `CCCOC(=O)N1CCN(C(=O)c2ccc3c(Cl)cc(-c4cc[nH]c4)nc3c2)CC1` . Is its IC50 below 200 nM?
// result Fulfilled

// query Please determine if `CCCOC(=O)N1CCN(C(=O)c2ccc3c(Cl)cc(-c4cccc(F)c4)nc3c2)CC1` is below 200 nM in terms of IC50.
// result Not fulfilled

// query State whether 200 nM exceeds IC50 recorded for CCCOC(=O)N1CCN(C(=O)c2ccc3c(Cl)c4c(nc3c2)CCC(CC(=O)OC)C4)C[C@H]1C (some centres unmarked) .
// result Not fulfilled

// query Here's an entry: CCCOC(=O)N1CCN(C(=O)c2ccc3c(Cl)c4c(nc3c2)CC(c2ccnc(C(N)=O)c2)CC4)CC1 (centres unmarked) . Is its IC50 below 200 nM?
// result Not fulfilled

// query Regarding `CCCOC(=O)N1CCN(C(=O)c2ccc3c(Cl)cc(-c4ccc5c(cnn5C)c4)nc3c2)CC1` , kindly confirm whether its IC50 is beneath 200 nM.
// result Fulfilled

// query Regarding `CCCOC(=O)N1CCN(C(=O)c2ccc3c(Cl)cc(-c4cn[nH]c4)nc3c2)CC1` , kindly confirm whether its IC50 is beneath 200 nM.
// result Fulfilled

// query Is 200 nM strictly greater than the molecule's reported IC50? molecule: `CCCOC(=O)N1CCN(C(=O)c2ccc3c(Cl)cc(-c4ccc(F)c(N)c4)nc3c2)CC1`
// result Not fulfilled

// query State whether 200 nM exceeds IC50 recorded for `CCCOC(=O)N1CCN(C(=O)c2ccc3c(Cl)cc(-c4cccc(C(N)=O)c4)nc3c2)CC1` .
// result Not fulfilled

// query A record lists CCCOC(=O)N1CCN(C(=O)c2ccc3c(Cl)cc(-c4ccc(C(C)N(C)C)cc4)nc3c2)C[C@H]1C (some centres unmarked) . Is its IC50 below 200 nM?
// result Fulfilled

// query Quick check: IC50 of CCCOC(=O)N1CCN(C(=O)c2ccc3c(Cl)c4c(nc3c2)CC(c2cncnc2)CC4)CC1 (centres unmarked) under 200 nM?
// result Not fulfilled

// query In the record for CCCOC(=O)N1CCN(C(=O)c2ccc3c(Cl)c4c(nc3c2)CC(c2ccnc(C)c2)CC4)[C@H](C)C1 (some centres unmarked) , is IC50 less than 200 nM?
// result Fulfilled
